Tested on: B cell lymphoma cell lines
Experiment: B cell lymphoma proliferation assay
Type: cell-based
Details: Homo sapiens, WSUDLCL2, WSU-DLCL2 B cell lymphoma cell line, read-out: EC50 (μM) WSU-DLCL2
In this section, each of the compounds is paired with its reported EC50.

Study these solved cases before continuing.
C=CC(=O)Nc1cccc(Nc2nc(Nc3cccc(OCCO)c3)ncc2F)c1 1 to 10 µM
C=CC(=O)Nc1cccc(Nc2nc(Nc3cccc(OCCCN4CCOCC4)c3)ncc2F)c1 1 to 10 µM
C=CC(=O)Nc1cccc(Nc2nc(Nc3cccc(OC)c3)ncc2C(N)=O)c1 1 to 10 µM
C=CC(=O)Nc1cccc(Nc2nc(Nc3ccc4c(cnn4C)c3)ncc2F)c1 1 to 10 µM
C=CC(=O)Nc1cccc(Nc2nc(Nc3cccc(OC)c3)ncc2C(F)(F)F)c1 1 to 10 µM

API: value(readout= EC50, system= B cell lymphoma cell lines, query= Cc1cnc(Nc2ccccc2)nc1Nc1cccc(NC(=O)/C=C/CN(C)C)c1 ) 1 to 10 µM

API: value(readout= EC50, system= B cell lymphoma cell lines, query= C=CC(=O)N1CCC[C@@H](Nc2nc(Nc3cccc(OC)c3)ncc2F)C1 ) > 10 µM

API: value(readout= EC50, system= B cell lymphoma cell lines, query= C=CC(=O)Nc1cccc(Nc2nc(Nc3ccc(OC)nc3)ncc2OC)c1 ) > 10 µM
